Exercise: for every item that follows, state its recorded %Inh.
- Test system: HIPK4
- test context: concentration: 1 μM, replicates: in singlicate; n = 1;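 also: KINOMEscan kinase panel screen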
Give bare numbers, in %.

Below, 3 compounds whose answers are already recorded.
Cc1ccc(-c2ccc3c(ccc4sc5c(c43)NC[C@@H](C)N=C5N(C)C)n2)cn1 : 9
CN1C(=O)C(Nc2cc(Cl)c(O)c(Cl)c2)=C(c2ccc(Cl)cc2)C1=O : 0
O=C(Nc1n[nH]c2nc(-c3ccccc3)c(Cl)cc12)C1CC1 : 0

Kindly give each listed record's %Inh.
1. Cn1c(=O)c(F)c(Nc2ccc(I)cc2F)c2c(=O)n(OC[C@H](O)CO)cnc21
2. COc1cc(Nc2nccc(N3CCC(NC(=O)C4COc5ccccc5O4)C3)n2)cc(OC)c1OC (stereo not drawn)
3. CCC(=O)c1c(-c2ccccc2)c2cc(Cl)ccc2c(=O)n1Cc1cc(S(C)(=O)=O)n(CC(N)=O)n1
4. CC(C)(C)c1ccc(C(=O)Nc2cn3cc(-c4ccccc4)ccc3n2)cc1
5. COc1ccc(-n2cnc3c(N)ncnc32)cc1
6. COC(=O)c1c(-c2ccccc2)c2cc(Br)ccc2c(=O)n1Cc1ccc(NC(=O)CCC(=O)O)cc1
7. COc1cc2ncn(-c3cc(OCc4ccncc4Br)c(C(N)=O)s3)c2cc1OC

Response:
[81, 0, 0, 0, 29, 0, 32]

Please go through the list and note %Inh for each compound.
1. COc1cccc(-n2cnc3c(N)ncnc32)c1
2. Cc1cccc(-c2cc(-c3c[nH]nc3-c3ccccn3)ccn2)c1
3. COc1cc(Nc2ccnc3ccc(C(F)(F)F)cc23)cc(OC)c1OC
4. CCn1c(-c2ccoc2)nc2cnccc21

Response:
13
0
0
0

Look up %Inh for the entries below, preserving their order.
1. Nc1n[nH]c2nnc(-c3ccccc3)c(-c3ccccc3)c12
2. Cc1c(Cn2c(C)nn3c(=O)cc(N4CCO[C@H](C)C4)nc23)cccc1C(F)(F)F
3. COc1cc2nccc(Nc3ccc(OCc4ccc(NC(C)=O)cc4)cc3)c2cc1OC.Cl

Response:
[0, 0, 0]

====

Please respond with reported %Inh for every item in the list.
- Test system: GRK4
- test context: concentration: 1 μM, replicates: in singlicate; n = 1
Answers are plain numbers, in %.

Use the examples below as a reference point.
COc1cccc(C2=C(Nc3cccc(C(=O)O)c3)C(=O)NC2=O)c1 [SB-390770] : 0
Cc1ccc(-c2ccc3c(ccc4sc5c(c43)NC[C@@H](C)N=C5N(C)C)n2)cn1 : 0
Nc1ncnc2c1ncn2-c1cccc2ccccc12 [SKF-97184] : 14
CCC(=O)c1c(-c2ccccc2)c2cc(Cl)ccc2c(=O)n1Cc1cc(S(C)(=O)=O)n(CC(N)=O)n1 : 0
OCCCNc1nccc(-c2c(-c3cccc(C(F)(F)F)c3)nn3cc(C(F)(F)F)ccc23)n1 [GW630813] : 0
CN1C(=O)C(Nc2ccccc2)=C(c2ccccc2)C1=O [SB-300079] : 0

Could I get %Inh for every one of these entries?
1. Cl.c1ccc(Cn2cnc3cc(Nc4ncnc5ccccc45)ccc32)cc1 [GW272142]
2. O=C1NC(=O)C(c2ccccc2)=C1Nc1cccc(O)c1 [SB-390534]
3. CCS(=O)(=O)c1ccc(OC)c(Nc2ncc(-c3ccc(F)cc3)o2)c1.Cl [GW591947]
4. Cc1nnc(-c2ccc3ncn(-c4ccc(S(C)=O)cc4)c3c2)o1 (stereo not shown)
5. COc1cc2nccc(Nc3ccc(OCc4ccc(NC(C)=O)cc4)cc3)c2cc1OC.Cl [GW440135]
6. COc1ccc(CNC(=O)NC2CCN(c3ccnc(Nc4ccc(F)cc4)n3)C2)cc1 (stereo not shown) [GSK1379706]
7. COc1cc(OC)cc(-c2cc3cnc(N)nc3nc2NC(=O)NC(C)(C)C)c1
8. Cc1cccc(-c2nc(Nc3ccc4c(cnn4C)c3)c3ccccc3n2)n1 [GW876731]

Response:
1. 0
2. 3
3. 0
4. 0
5. 23
6. 19
7. 13
8. 0

List reported %Inh for each of these molecules:
1. Cn1c(=O)c(F)c(Nc2ccc(I)cc2F)c2c(=O)n(OC[C@H](O)CO)cnc21
2. CCS(=O)c1ccc(-c2coc3ccc(-c4nnc(C)o4)cc23)cc1 (stereo not shown)
3. O=c1cc(N2CCOCC2)nc2n(Cc3ccc(F)c(Cl)c3)ccn12 [GSK2297099]
4. COc1cc(Nc2nccc(N3CCC(NC(=O)C(C)c4ccc(Cl)cc4)C3)n2)cc(OC)c1OC (stereo not shown) [GSK1379757]
5. CN(C)c1cc(-c2ccc3c(N)n[nH]c3c2)nc(N)n1 [GSK2219329]

Response:
1: 0; 2: 21; 3: 0; 4: 37; 5: 0

====

- System: STK36
- test context: concentration: 1 μM, replicates: in singlicate; n = 1
Decide using %Inh: a value greater than or equal to 10% is yes (1), a smaller one is no (0).

Request: Say whether OCCCNc1nccc(-c2c(-c3cccc(C(F)(F)F)c3)nn3cc(C(F)(F)F)ccc23)n1 [GW630813] shows %Inh of 10% or more.
Response: yes (1)

Request: Hi, just wondering whether "Fc1cccc(CSc2nnc(-c3ccc4c(c3)CCO4)o2)c1" shows %Inh of 10% or higher.
Response: yes (1)

Request: Determine whether this compound has %Inh no lower than 10%: O=C(NCCNc1ccnc(Nc2ccc(F)cc2)n1)Nc1ccc2c(c1)OCO2 [GSK1379882]
Response: no (0)

Request: Does the reported %Inh for Cc1ccccc1COc1cc(-n2cnc3cc(Cl)ccc32)sc1C(N)=O [GW813349] fall at or above the 10% mark?
Response: yes (1)

====

I'd appreciate it if you could supply %Inh values for the items below.
- System: CDC2L1
- Construct: gene CDK11B
- test context: concentration: 1 μM, replicates: in singlicate; n = 1
One number for each entry, in %.

Illustrative cases are given below, each with its answer.
COc1cc(Nc2nccc(N3CCC(NC(=O)C4COc5ccccc5O4)C3)n2)cc(OC)c1OC (stereo not shown) : 0
Nc1n[nH]c2ncc(-c3ccccc3)cc12 : 0
COc1ccc(CNC(=O)NC2CCN(c3ccnc(Nc4ccc(F)cc4)n3)C2)cc1 (stereo not shown) : 2
O=c1cc(N2CCOCC2)nc2n(Cc3ccc(F)c(Cl)c3)ccn12 : 3
CCCC(=O)Nc1n[nH]c2ncc(-c3cccc4ccccc34)cc12 : 0
COc1cc2ncn(-c3cc(OCc4ccncc4)c(C(N)=O)s3)c2cc1OC : 0
Cc1cccc(-c2nc(Nc3ccc4c(cnn4C)c3)c3ccccc3n2)n1 : 0
Cl.NS(=O)(=O)c1cccc(Nc2cc(-c3ccc(F)cc3)n[nH]2)c1 : 0

Need %Inh for each of these molecules.
1. COc1ccc(-c2cc3c(C)nc(N)nc3n([C@H]3CC[C@H](O)CC3)c2=O)cn1
2. Nc1ncnc2c1ncn2-c1cccc2ccccc12
3. CCCNC(=O)Nc1ccc(Oc2ncnc3ccn(C)c23)cc1
4. COc1cc2ncn(-c3cc(OCc4ccc(S(C)(=O)=O)cc4)c(C(N)=O)s3)c2cc1OC
5. COc1cccc(C2=C(Nc3cccc(C(=O)O)c3)C(=O)NC2=O)c1
6. COc1ccc(-c2cc3c(C)nc(N)nc3n([C@H]3CC[C@H](OCCO)CC3)c2=O)cn1
7. COc1cc2ncn(-c3cc(OCc4ccncc4Br)c(C(N)=O)s3)c2cc1OC
8. Cc1nnc(-c2ccc(C)c(-c3ccc(C(=O)O)cc3)c2)o1

Response:
1: 0; 2: 0; 3: 0; 4: 0; 5: 0; 6: 11; 7: 5; 8: 0

Look up %Inh for the entries below, preserving their order.
1. CCC(=O)c1c(-c2ccccc2)c2cc(Cl)ccc2c(=O)n1Cc1cc(C(=O)NC2CC2)n(C)n1
2. FC(F)(F)c1ccc(-c2ncn(CCCN3CCOCC3)c2-c2ccncc2)cc1
3. OCCCNc1nccc(-c2c(-c3cccc(C(F)(F)F)c3)nn3cc(C(F)(F)F)ccc23)n1
4. Cc1cc(Nc2nc(-c3cccc(C)n3)nc3ccccc23)ccn1

Response:
4
0
0
0

Quick request: %Inh for each listed item, please.
1. COc1cc2ncn(-c3cc(OCCCc4ccccc4)c(C(N)=O)s3)c2cc1OC
2. COC(=O)c1c(-c2ccccc2)c2cc(Br)ccc2c(=O)n1Cc1ccc(NC(=O)CCC(=O)O)cc1
3. COc1ccc(Nc2nccc(N3CCC(NS(=O)(=O)c4ccc(NC(C)=O)cc4)C3)n2)cc1 (stereo not shown)
4. Fc1cccc(CSc2nnc(-c3ccc4c(c3)CCO4)o2)c1
5. Cc1cccc(-c2cc(-c3c[nH]nc3-c3ccccn3)ccn2)c1
6. COC(=O)c1c(-c2ccccc2)c2cc(C)ccc2c(=O)n1Cc1ccccc1
7. CN(C)c1cc(-c2ccc3c(N)n[nH]c3c2)nc(N)n1
8. CCC(=O)c1c(-c2ccccc2)c2cc(Cl)ccc2c(=O)n1Cc1cc(S(C)(=O)=O)n(CC(N)=O)n1

Response:
1. 0
2. 16
3. 0
4. 0
5. 0
6. 0
7. 0
8. 0

Each of the following entries comes with a recorded value; kindly state %Inh for each.
1. COc1cc(Nc2ccnc3ccc(C(F)(F)F)cc23)cc(OC)c1OC
2. CCc1nc(-c2cccc(C)c2)c(-c2ccncc2)s1
3. CCn1c(-c2ccoc2)nc2cnccc21
4. Cn1c(=O)c(F)c(Nc2ccc(I)cc2F)c2c(=O)n(OC[C@H](O)CO)cnc21

Response:
[0, 0, 0, 14]

Entry source: paper PMC5540273
